# residual activity listing for each entry below
measurement-target: Cyclin-dependent kinase 1/cyclin B1 (Homo sapiens) (UniProt P06493+P14635)
Sequence (P06493 whole entry, looked up): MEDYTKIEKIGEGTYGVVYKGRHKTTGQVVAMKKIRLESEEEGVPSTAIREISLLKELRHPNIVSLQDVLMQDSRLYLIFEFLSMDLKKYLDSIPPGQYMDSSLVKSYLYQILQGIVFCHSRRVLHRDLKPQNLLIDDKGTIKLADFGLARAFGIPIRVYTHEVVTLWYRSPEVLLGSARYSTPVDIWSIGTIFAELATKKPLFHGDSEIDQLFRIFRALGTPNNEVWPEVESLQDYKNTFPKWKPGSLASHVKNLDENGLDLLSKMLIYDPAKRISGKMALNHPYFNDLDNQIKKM
Sequence (P14635 whole entry, looked up): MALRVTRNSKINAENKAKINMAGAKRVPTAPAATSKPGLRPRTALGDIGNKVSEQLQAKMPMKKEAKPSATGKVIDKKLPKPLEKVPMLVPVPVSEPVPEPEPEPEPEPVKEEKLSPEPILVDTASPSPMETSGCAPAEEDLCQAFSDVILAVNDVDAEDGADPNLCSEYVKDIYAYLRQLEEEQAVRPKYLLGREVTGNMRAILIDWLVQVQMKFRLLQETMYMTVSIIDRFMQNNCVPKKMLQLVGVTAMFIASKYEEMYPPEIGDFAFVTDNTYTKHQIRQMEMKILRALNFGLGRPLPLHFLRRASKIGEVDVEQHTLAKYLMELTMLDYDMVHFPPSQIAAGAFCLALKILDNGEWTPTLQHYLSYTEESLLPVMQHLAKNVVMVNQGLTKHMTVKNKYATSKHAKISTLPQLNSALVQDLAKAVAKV
test-context: at 1 µM
readout-kind: residual activity (%)

{"smiles-representation": "Ic1cccc(CSc2nnc(-c3ccncc3)o2)c1", "measurement-target": "Cyclin-dependent kinase 1/cyclin B1 (Homo sapiens) (UniProt P06493+P14635)", "observed": 18}
{"smiles-representation": "O=C1Nc2ccc(Br)cc2/C1=C\\c1cc2c([nH]1)CCCC2", "measurement-target": "Cyclin-dependent kinase 1/cyclin B1 (Homo sapiens) (UniProt P06493+P14635)", "observed": 110}
{"smiles-representation": "Nc1n[nH]c2nnc(-c3c(-c4ccccc4)nn4ccccc34)cc12", "measurement-target": "Cyclin-dependent kinase 1/cyclin B1 (Homo sapiens) (UniProt P06493+P14635)", "observed": 107}
{"smiles-representation": "O=[N+]([O-])c1ccc(-c2nc(-c3ccc(F)cc3)c(-c3ccncc3)[nH]2)cc1", "measurement-target": "Cyclin-dependent kinase 1/cyclin B1 (Homo sapiens) (UniProt P06493+P14635)", "observed": 102}
{"smiles-representation": "O=C1NC(=O)c2cc(Nc3ccc(F)cc3)c(Nc3ccc(F)cc3)cc21", "measurement-target": "Cyclin-dependent kinase 1/cyclin B1 (Homo sapiens) (UniProt P06493+P14635)", "observed": 111}
{"smiles-representation": "Nc1cccc(-c2cc3c(Oc4cccc(O)c4)ncnc3[nH]2)c1", "measurement-target": "Cyclin-dependent kinase 1/cyclin B1 (Homo sapiens) (UniProt P06493+P14635)", "observed": 81}
{"smiles-representation": "Cc1ccc(NC2=CC(=O)c3sc(C)nc3C2=O)cc1", "measurement-target": "Cyclin-dependent kinase 1/cyclin B1 (Homo sapiens) (UniProt P06493+P14635)", "observed": 101}
{"smiles-representation": "COc1cc2ncnc(Nc3ccc(Oc4ccccc4)cc3)c2cc1OC", "measurement-target": "Cyclin-dependent kinase 1/cyclin B1 (Homo sapiens) (UniProt P06493+P14635)", "observed": 99}
{"smiles-representation": "COc1cc2ncnc(N3CCN(C(=O)Nc4ccc(Oc5ccccc5)cc4)CC3)c2cc1OC", "measurement-target": "Cyclin-dependent kinase 1/cyclin B1 (Homo sapiens) (UniProt P06493+P14635)", "observed": 119}
{"smiles-representation": "CNc1cc2c(Nc3cccc(Br)c3)ncnc2cn1", "measurement-target": "Cyclin-dependent kinase 1/cyclin B1 (Homo sapiens) (UniProt P06493+P14635)", "observed": 111}
{"smiles-representation": "COc1cccc(-c2cc(=O)c3ccccc3o2)c1N", "measurement-target": "Cyclin-dependent kinase 1/cyclin B1 (Homo sapiens) (UniProt P06493+P14635)", "observed": 99}

====

measurement-target: Phosphorylase b kinase gamma catalytic chain, liver/testis isoform (Homo sapiens)
test-context: at 10 µM
Classify as follows. Reported residual activity greater than or equal to 80%: MET. Reported residual activity below: NOT MET.

{"molecule": "Nc1nc(Nc2ccc(S(N)(=O)=O)cc2)nn1C(=S)Nc1c(F)cccc1F", "measurement-target": "Phosphorylase b kinase gamma catalytic chain, liver/testis isoform (Homo sapiens)", "answer-label": "NOT MET"}
{"molecule": "Cn1nc2c3c(cccc31)C(=O)c1ccccc1-2", "measurement-target": "Phosphorylase b kinase gamma catalytic chain, liver/testis isoform (Homo sapiens)", "answer-label": "MET"}
{"molecule": "Cc1cc2ncc(-c3ccccc3)nc2cc1C", "measurement-target": "Phosphorylase b kinase gamma catalytic chain, liver/testis isoform (Homo sapiens)", "answer-label": "MET"}
{"molecule": "O=C1Nc2ccccc2/C1=C1/Nc2ccccc2/C1=N\\OCCC(O)CO (stereo unspecified)", "measurement-target": "Phosphorylase b kinase gamma catalytic chain, liver/testis isoform (Homo sapiens)", "answer-label": "NOT MET"}
{"molecule": "CCOc1cc2ncnc(Nc3cccc(Br)c3)c2cc1OCC", "measurement-target": "Phosphorylase b kinase gamma catalytic chain, liver/testis isoform (Homo sapiens)", "answer-label": "MET"}
{"molecule": "Oc1c2ccccc2c2c3c(cccc13)N=N2", "measurement-target": "Phosphorylase b kinase gamma catalytic chain, liver/testis isoform (Homo sapiens)", "answer-label": "NOT MET"}

====

measurement-target: Serine/threonine-protein kinase VRK2 (Homo sapiens);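 note: remaining VRK2 kinase activity expressed as percent of uninhibited control, measured in MOPS buffer at pH 7.0 containing EDTA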
test-context: at 1 µM
Description: Millipore: Percentage of residual kinase activity of VRK2 at 1uM relative to control. Control inhibitor: Phosphoric acid* at 0.3uM. Buffer: 8 mM MOPS pH 7.0, 0.2 mM EDTA
# residual activity listing for each entry below

{"smiles-representation": "N#C/C(=C(\\N)Sc1ccc(N)cc1)c1ccccc1C(F)(F)F", "residual activity, %": 101}
{"smiles-representation": "Nc1cccc(-c2cc3c(Oc4cccc(O)c4)ncnc3[nH]2)c1", "residual activity, %": 100}
{"smiles-representation": "CN(C)CCCn1cc(C2=C(c3c[nH]c4ccccc34)C(=O)NC2=O)c2ccccc21", "residual activity, %": 119}
{"smiles-representation": "CN(C)c1ccc(/C=C2\\C(=O)Nc3ccccc32)cc1", "residual activity, %": 113}
{"smiles-representation": "COc1ccc(OC)c2c(=S)c3ccccc3[nH]c12", "residual activity, %": 91}
{"smiles-representation": "Cn1nc2c3c(cccc31)C(=O)c1ccccc1-2", "residual activity, %": 92}
{"smiles-representation": "Cc1ccc(NC2=CC(=O)c3sc(C)nc3C2=O)cc1", "residual activity, %": 89}
{"smiles-representation": "Nc1ccc2ncnc(NCCc3ccc(Oc4ccccc4)cc3)c2c1", "residual activity, %": 106}
{"smiles-representation": "CCC(=O)Nc1ccc2ncnc(Nc3cccc(Br)c3)c2c1", "residual activity, %": 106}
{"smiles-representation": "CC(=O)c1ccc(N2CCOCC2)cc1O", "residual activity, %": 107}
{"smiles-representation": "CO[C@@H]1[C@H](N(C)C(=O)c2ccccc2)C[C@H]2O[C@]1(C)n1c3ccccc3c3c4c(c5c6ccccc6n2c5c31)C(=O)NC4", "residual activity, %": 99}

====

measurement-target: Ribosomal protein S6 kinase beta-1 (Homo sapiens) (UniProt P23443)
Sequence (P23443 whole entry, looked up): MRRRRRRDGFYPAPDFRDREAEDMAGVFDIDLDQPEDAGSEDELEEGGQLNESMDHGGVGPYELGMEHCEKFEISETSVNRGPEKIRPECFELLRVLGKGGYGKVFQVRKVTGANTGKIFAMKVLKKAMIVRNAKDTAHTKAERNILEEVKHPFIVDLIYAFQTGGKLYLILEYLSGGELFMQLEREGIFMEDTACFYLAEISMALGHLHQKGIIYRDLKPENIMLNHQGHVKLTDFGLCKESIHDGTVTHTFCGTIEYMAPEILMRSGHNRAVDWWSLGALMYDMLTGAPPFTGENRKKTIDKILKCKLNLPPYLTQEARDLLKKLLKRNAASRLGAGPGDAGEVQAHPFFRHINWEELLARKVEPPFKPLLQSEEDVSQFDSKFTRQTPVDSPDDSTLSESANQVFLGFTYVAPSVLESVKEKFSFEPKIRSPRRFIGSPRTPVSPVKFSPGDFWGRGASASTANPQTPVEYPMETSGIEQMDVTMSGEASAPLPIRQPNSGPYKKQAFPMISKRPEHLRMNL
test-context: at 10 µM
# residual activity listing for each entry below

{"compound": "Cc1ccc(NC2=CC(=O)c3sc(C)nc3C2=O)cc1", "residual activity / %": 78}
{"compound": "Cc1nc(-c2ccccc2)c(-c2ccncc2)o1", "residual activity / %": 56}
{"compound": "O=C1Nc2ccccc2/C1=C1/Nc2ccccc2/C1=N\\OCCC(O)CO (stereo unspecified)", "residual activity / %": 6}
{"compound": "O=C1NC(=O)c2cc(Nc3ccc(F)cc3)c(Nc3ccc(F)cc3)cc21", "residual activity / %": 101}
{"compound": "CC(C)n1cnc2c(NCc3ccccc3)nc(NCCCO)nc21", "residual activity / %": 100}
{"compound": "N#Cc1cnc2cnc(NCc3cccnc3)cc2c1Nc1ccc(F)c(Cl)c1", "residual activity / %": -1}

====

measurement-target: Aurora kinase A (Homo sapiens)
test-context: at 1 µM

{"smiles-representation": "O=[N+]([O-])c1ccc(-c2nc(-c3ccc(F)cc3)c(-c3ccncc3)[nH]2)cc1", "readout-units": "%", "residual activity": 103}
{"smiles-representation": "CC(=O)c1ccc(N2CCOCC2)cc1O", "readout-units": "%", "residual activity": 109}
{"smiles-representation": "CO[C@H]1C[C@@H]2CC[C@@H](C)[C@@](O)(O2)C(=O)C(=O)N2CCCC[C@H]2C(=O)O[C@H]([C@H](C)C[C@@H]2CC[C@@H](O)[C@H](OC)C2)CC(=O)[C@H](C)/C=C(\\C)[C@@H](O)[C@@H](OC)C(=O)[C@H](C)C[C@H](C)/C=C/C=C/C=C/1C", "readout-units": "%", "residual activity": 87}
{"smiles-representation": "COc1cc2ncnc(Nc3ccc(NC(=O)c4ccccc4)cc3)c2cc1OC", "readout-units": "%", "residual activity": 18}
{"smiles-representation": "c1ccc(-c2n[nH]cc2-c2ccnc3ccccc23)nc1", "readout-units": "%", "residual activity": 99}
{"smiles-representation": "Cc1ccc(NC2=CC(=O)c3sc(C)nc3C2=O)cc1", "readout-units": "%", "residual activity": 116}
{"smiles-representation": "O=C1NC(=O)c2c1c1c3ccccc3[nH]c1c1[nH]c3cc(Br)ccc3c21", "readout-units": "%", "residual activity": 93}
{"smiles-representation": "Cc1cncc2cccc(S(=O)(=O)N3CCCN(C(=O)CN)C[C@H]3C)c12", "readout-units": "%", "residual activity": 64}

====

# residual activity listing for each entry below
measurement-target: Dual specificity protein kinase CLK2 (Homo sapiens)
test-context: at 1 µM

{"smiles-representation": "O=C(O)c1ccc2c3c1cccc3c(=O)n1c3ccccc3nc21", "residual activity, %": 77}
{"smiles-representation": "COc1ccc(OC)c2c(=S)c3ccccc3[nH]c12", "residual activity, %": 99}
{"smiles-representation": "O=c1c2ccccc2[nH]c(=S)n1CCN1CCC(=C(c2ccc(F)cc2)c2ccc(F)cc2)CC1", "residual activity, %": 115}
{"smiles-representation": "Cc1nc2cc3nc(-c4cccs4)cnc3cc2n1C", "residual activity, %": 114}
{"smiles-representation": "O=C1NC(=O)c2cc(Nc3ccc(F)cc3)c(Nc3ccc(F)cc3)cc21", "residual activity, %": 100}
{"smiles-representation": "Cc1nc(-c2ccccc2)c(-c2ccncc2)o1", "residual activity, %": 114}
{"smiles-representation": "CO[C@H]1[C@@H](OC)C[C@H](C)[C@@H](OC)C2=CC(=O)C=C(NC(=O)/C(C)=C/C=C/[C@H](OC)[C@@H](OC(N)=O)/C(C)=C/[C@@H]1C)C2=O", "residual activity, %": 100}
{"smiles-representation": "CC(C)n1cnc2c(NCc3ccccc3)nc(NCCCO)nc21", "residual activity, %": 53}
{"smiles-representation": "CCN(CC)C(=O)c1ccc(Nc2nc(OCC3CCCCC3)c3nc[nH]c3n2)cc1", "residual activity, %": 25}
{"smiles-representation": "O=C1Nc2cc(Br)ccc2/C1=C1/Nc2ccccc2/C1=N\\O", "residual activity, %": 92}
{"smiles-representation": "O=C(Nc1cccc(Nc2cc(Nc3cccc(C(F)(F)F)c3)ncn2)c1)C1CC1", "residual activity, %": 99}
{"smiles-representation": "Cn1nc2c3c(cccc31)C(=O)c1ccccc1-2", "residual activity, %": 86}
{"smiles-representation": "C[C@@H](N)[C@H]1CC[C@H](C(=O)Nc2ccncc2)CC1", "residual activity, %": 97}
{"smiles-representation": "Cc1ccc(S(=O)(=O)/C=C/C#N)cc1", "residual activity, %": 110}
{"smiles-representation": "CO[C@H]1C[C@@H]2CC[C@@H](C)[C@@](O)(O2)C(=O)C(=O)N2CCCC[C@H]2C(=O)O[C@H]([C@H](C)C[C@@H]2CC[C@@H](O)[C@H](OC)C2)CC(=O)[C@H](C)/C=C(\\C)[C@@H](O)[C@@H](OC)C(=O)[C@H](C)C[C@H](C)/C=C/C=C/C=C/1C", "residual activity, %": 118}
{"smiles-representation": "COc1cccc(-c2cc(=O)c3ccccc3o2)c1N", "residual activity, %": 116}
{"smiles-representation": "O=[N+]([O-])c1ccc(-c2nc(-c3ccc(F)cc3)c(-c3ccncc3)[nH]2)cc1", "residual activity, %": 122}
{"smiles-representation": "CO[C@@H]1[C@H](N(C)C(=O)c2ccccc2)C[C@H]2O[C@]1(C)n1c3ccccc3c3c4c(c5c6ccccc6n2c5c31)C(=O)NC4", "residual activity, %": 17}
